- TESTED_TARGET: T1, O8-bH
- T1 chain: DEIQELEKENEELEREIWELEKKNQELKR
- ASSAY_REMARKS: two-hybrid library CCNG1;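 also: natural log of median RNA to DNA barcode read ratio; higher means stronger binding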
QUANTITY_NAME: interaction score

Example cases with answers are listed next.
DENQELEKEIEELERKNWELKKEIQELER [O5-bH] :: -0.103
DEIQELEKKIEELKRENWELEKENQELER [O3-bH] :: 0.212
DKIQELKKKNEELKRKIWELKKENQELER [O7-bH] :: 1.5
DENQELEKEIEELERENWELEKKIQELKR [O14-bH] :: -1.78

(P) DKNQELKKENEELEREIWELEKEIQELER [O1-bH]
(Q) DKIQELKKEIEELERKNWELKKKNQELKR [O4-bH]
(R) DKIQELKKEIEELERENWELEKENQELER [O11-bH]
Task: Please rank these binders by interaction score in descending order. List the labels according to the requested ordering.
Result: Q, R, P
